B1: GLTSCR2 (parent)
chain: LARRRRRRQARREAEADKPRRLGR

- Variants of: B1
- Experimental Details: protein stability index of a GFP-peptide fusion (GPS, HEK-293T) (PSI 1-6); higher = more stable;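 note: lentivirally expressed fusions sorted by FACS into six bins by GFP to DsRed ratio, PSI derived from sequencing read proportions per bin multiplied by bin number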
- Cond: c terminus: a fixed tail appended
The following variants are listed with their measured protein stability index values.
Respond with the number and no other words.

Before answering, review these 10 worked examples.
A10M
5.21
R24M
4.28
P19C
4.29
D17C
4.07
R7M
5.22
R3Q
4.99
E15C
4.68
A2M
4.19
A2Y
4.32
R5I
3.79

Data request: Endpoint output: protein stability index of `R12D` . Value?
Data returned: 4.73

Data request: Ok, now `R12K`
Data returned: 4.55

Data request: Try the variant `R11Q`
Data returned: 4.26

Data request: // next record `K18P`
Data returned: 5.41

Data request: Same for `R5V`
Data returned: 4.54

Data request: Then `G23F` ?
Data returned: 4.44

Cited source for all entries: the supplement of paper PMC10567573
